Numbers sourced from patent US20130156857A1.

# assay_notes: Solubility and stability pH profile of diacerein at ambient temperature for 48 hours
# Assay type: physicochemical
# condition_details: simulated gastric fluid, thermodynamic from solid; 0.1N HCl, final pH 1.17, ambient temperature, 48 hours; read-out: Total solubility
# Excerpt: The tables below indicate the solubility and stability of diacerein in buffer solutions with different pH values. […] The degradation products including rhein increase at a pH above 5. The poor stability of diacerein in the intestinal environment may result in incomplete absorption and cause poor and variable bioavailability. Moreover, one of the increased degradants in the intestinal environment, rhein, has been suspected to be a major factor in stimulating colon mucosa and results in diarrhea. […]
measure_name: solubility at 48 h (µg/mL)
Report the figure in µg/mL without appending any unit label.

Form field: reported solubility at 48 h of `CC(=O)Oc1cccc2c1C(=O)c1c(OC(C)=O)cc(C(=O)O)cc1C2=O`
0.17

###

# assay_notes: Solubility and stability pH profile of diacerein at ambient temperature for 48 hours
# Format: physicochemical
# condition_details: buffer solution (0.01N HCl), simulated gastric fluid, thermodynamic from solid; 0.01N HCl, final pH 1.98, ambient temperature, 48 hours; read-out: Total solubility
measure_name: solubility at 48 h (µg/mL)
Report the figure in µg/mL without appending any unit label.

Form field: reported solubility at 48 h of `CC(=O)Oc1cccc2c1C(=O)c1c(OC(C)=O)cc(C(=O)O)cc1C2=O`
0.15

###

# assay_notes: Solubility and stability pH profile of diacerein at ambient temperature for 48 hours
# Format: physicochemical
# condition_details: 50 mM NaH2PO4 buffer, aqueous buffer, thermodynamic from solid; 50 mM NaH2PO4, final pH 3.03, ambient temperature, 48 hours; read-out: Total solubility
measure_name: solubility at 48 h (µg/mL)
Report the figure in µg/mL without appending any unit label.

Form field: reported solubility at 48 h of `CC(=O)Oc1cccc2c1C(=O)c1c(OC(C)=O)cc(C(=O)O)cc1C2=O`
0.35
